meta.source: patent US20250355001A1

tested.on: dGA (tau 297-390) (human, UniProt P10636 614-707)
Sequence (P10636 614-707 limits assumed): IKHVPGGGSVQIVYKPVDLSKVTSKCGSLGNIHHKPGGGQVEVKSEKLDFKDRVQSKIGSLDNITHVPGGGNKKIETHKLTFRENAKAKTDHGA
test.description: SPR, scAb captured, tau analyte
Method: The capture antibody was diluted 1/100 in 10 mM Sodium acetate buffer pH 5.0 and passed over the activated chip surface for a period of at least 420 s. Final ligand immobilisation levels over 12,000 RU were deemed to be satisfactory. […] The single cycle kinetics protocol was similar and utilised the same level of scAb capture. […] Binding responses were analysed in Biacore X100 evaluation software and data fitted to a 1:1 binding model to obtain kinetic and affinity characterisation.
Record form. Attribute: kon. Fill in for each entry.
Give bare numbers, in M⁻¹ s⁻¹.

- S1G2 scAb (scFv, not shown: small tags and cut ends, scAb) scFv: QVQLQESGPSLVKPSQTLSLTCTVSGFSLTSNSVGWVRQAPGKAPEWVAGIDTDGEEGYNPALNSRLSITRDTSKSQVSLSLSSVTSEDTAVYYCGRSYRADGLAYGYVQAIDYWGPGLLVTVSSEGKSSGASGESKVDDQAVVTQPSSVSGSLGQRVSITCSGSFIGISSVGWFQQLPGSGLRTIIVASDGRPSGVPDRFSMSKSGNTATLTISSLQAEDEADYFCGSSDRTPYTGVFGSGTRLTVLG: 783000
- E1B8 scAb (scFv, not shown: small tags and cut ends, scAb) scFv: QVQLQESGPSLVKPSQTLSLTCTVSGFSLTNYPVGWVRQAPGKALEWIGNIENDGSANYASALKSRLSITRDTSKNQVSLSLSSATTEDTAVYYCGREFGGSDGYTYFVDIDYWGPGLLVTVSSEGKSSGASGESKVDDQAVLTQPSSVSKSLGQSVSITCSGSSSNVGYGNYVSWFQQVPGSAPKILIYGATSRASGVPDRFSGSRSGNTATLTITSLQAEDEADYYCASYDGSSSGVFGSGTRLTVLG: 137000
- S1E12 scAb (scFv, not shown: small tags and cut ends, scAb) scFv: QVQLQESGPSLVKPSQTLSLTCTVSGFSLGSNSVGWVRQAPGKAPEWVAGIDTDGEEGYNPALNSRLSITRDTSKSQVSLSLSSVTSEDTAVYYCGRSYRADGLAYGYVQAIDYWGPGLLVTVSSEGKSSGASGESKVDDRVVRTQPSSVSGSLGQRVSITCSGSFIGISSVGWFQQLPGSGLRTIIVASDGRPSGVPDRFSMSKSGNTATLTISSLQAEDEADYFCGSSDRTQYTGVFGSGTRLTVLG: 2.99e+06

Next, consider the following binder.
Prompt: Which kon reading was recorded for the binder NS2A1 scAb (scFv, not shown: small tags and cut ends, scAb) scFv: QVQLQESGPSLVKPSQTLSLTCTVSGFSLSTNSVGWVRQAPGKAPEWVAGIDTDGEEGFNPVLKSRLSITRDTSKSQVSLSLSNVTSEDTAVYYCGRSYRTDGLAYGYVQAIDYWGPGLLVTISSEGKSSGASGESKVDDQSVLTQPSSVSGSPGQTVSITCSGSYIGSSGVGWFQQLPGSGLRTIIVASDGRPSGVPDGFSMSKSGNTATLTISSLQAEDEADYFCGSSDRTQYTGLFGSGTRLTVLG ?
Completion: 188000
